- Run Description: Novel Modifiers of Survival Motor Neuron (SMN) Protein: Gene Identification via Genome-wide siRNA Screen;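 also: luminescence tracks full-length SMN protein made from the SMN2 reporter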
- Assay Setup: HEK293T SMN2-luciferase reporter, siRNA knockdown, 72 h; actives lie on both sides
The whole screen tested about 31,000 sequences, of which about 1,400 (4.5%) were called active. The full list was thinned out, with actives kept by preference.
Response key: criterion met means median seed-adjusted z-score >= -0.1; criterion not met means median seed-adjusted z-score < -0.1.

Item Sequence	Qualitative Label
GGGUCUUACGAAUGCGGAATT against ZNF618	criterion met
GAAAUUUCUUAGGAACUCATT against ADH1B	criterion met
GUGCUCGAAUGAUAACUAUTT against RAB2A	criterion met
AGAAUGUCUUGAUUGUGGATT against HPRT1	criterion met
GGACAGCUAUGACUCGGAUTT against DOC2A	criterion met
CCUUCGAGCUGCUAUUAAUTT against TLR10	criterion not met
GGUGUAUGCUGAGGUGAAATT against EIF2C1	criterion met
GCAAGUUGGAAGACCGGAATT against XPO5	criterion met
GCGAAGUGUUCAGACCAAATT against HEATR1	criterion not met
CAACAACACCUGUUGCUUUTT against RGS17	criterion not met
GCACCUACUUCAUCUAUAGTT against EDA	criterion met
UGAGAUUUCGGAAUCAGAATT against TSPAN31	criterion not met
CAGCUUACAAUACAUCAAATT against ZNF7	criterion met
CGGAUAUUCCUGAACGCAATT against MARK3	criterion met
AAACGAUGUUGAUGUCCAATT against ATP6V1E1	criterion not met
GCAUUUGGAUGGAUCAUGUTT against CD163	criterion met
GACUCCCAUUUGAGACUUUTT against ZMAT1	criterion not met
GCCGUGCUGAAGGCUCUAATT against KCNE3	criterion not met
CAACAGCAAUUACACCGAUTT against TMPRSS13	criterion met
GGAUGUUCACAACCGAAUUTT against CTNNB1	criterion met
CAUCAGUCAUAAUGCCUAUTT against MAP1D	criterion met
CAAAGAAGCUUUUUCACUATT against CALM2	criterion met
CCAGUUCGCUAUCACCAAATT against MATN1	criterion not met
GGAUCUACUCGGCACUCUATT against ZBTB20	criterion not met
CCAUGCCCUAUGUUAAGAATT against RRM2B	criterion not met

---

- Run Description: Novel Modifiers of Survival Motor Neuron (SMN) Protein: Gene Identification via Genome-wide siRNA Screen;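 also: luminescence tracks full-length SMN protein made from the SMN2 reporter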
- Assay Setup: HEK293T SMN2-luciferase reporter, siRNA knockdown, 72 h; actives lie on both sides
The campaign covered roughly 31,000 sequences. About 1,400 (4.5%) were called active. Only a selection was taken, and actives are over-represented in it overall.

Item Sequence	median seed-adjusted z-score
GCAAUUGUCUGAUUAAUCATT against MB	0.504
CACCUACUCUGACAACCAATT against HSPA1L	-1.27
GCUGCUAUCAGUGAACGGATT against LIN7A	-1.39
CAUCAGGAAUGGAAUUACATT against SKIL	-0.868
GGAAAUUAUGUAGAACCGATT against ALDH7A1	-0.406
GAGGCUCGGUAAUCAAUGATT against DERL1	0.22
CACAGAUUCGAGAAAUUCATT against SF3B1	-3.65
ACUUUGCAAUCGCUCAAAATT against NPTX1	-0.117
CGGCUACGACGAUUACGAATT against MYO15A	0.0508
ACAGCUCCGUGUUGACUCATT against FOXG1	0.749
GCUUUACAACAAUCACAUATT against AMIGO2	-0.258
ACAUGGACGUGAAAGGGAATT against WFIKKN2	-0.353
GCAUCAGCUUCGAUGAGUATT against S100A16	0.24
GAAUGGAGAGAGAAUUGAATT against B2M	-0.367
GCAUGGUAUUGGAAUAACUTT against CHEK1	-5.1
CAAAUCUGCUCAUCGAAAATT against MID1	-0.294
GGUAAUCUUUAUGAAGAGATT against GCM1	0.0197
GGAACAUUCCGACCUACAATT against PTDSS2	0.0941
CAACGAUCCCUGUACCAGUTT against GABBR2	-0.038
GACCCGCUUUCUACCGUUATT against ENTPD4	0.324
GGUUUGAGCUUACUCUUCATT against ACCN5	0.227
GCAAGCGAGUCAACACCAATT against DRD2	-0.0273
UAUGGGCUCUUGAACCAAATT against MTNR1B	-0.393
GGCUUAACAUUGAACGAAUTT against CRY2	0.0209
GGGAUCAACUUAGAAGAGATT against POU6F1	0.978

---

- Run Description: Novel Modifiers of Survival Motor Neuron (SMN) Protein: Gene Identification via Genome-wide siRNA Screen;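 also: luminescence tracks full-length SMN protein made from the SMN2 reporter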
- Assay Setup: HEK293T SMN2-luciferase reporter, siRNA knockdown, 72 h; actives lie on both sides
The whole screen tested about 31,000 sequences, of which about 1,400 (4.5%) were called active. Shown is part of a subset that was picked to be rich in actives.
We begin with a simple list: items and their reported median seed-adjusted z-score.

Item Sequence	median seed-adjusted z-score
GGGUCACACUAUUUCGUGUTT against ARIH1	-0.443 (inactive)
GGAAGGACUGCGAACCUUATT against POLM	-1.55 (active)
CAACGAUGCUAGAAGAAUUTT against PCOLCE2	-1.15 (active)
GCAGUUCCCUUAGAGCUAGTT against MAP4	1.67 (active)
AGUUCUUCCUAAUCCGAGATT against DOLPP1	0.00977 (inactive)
CCAACGACGUGGUGCAGAATT against CLDN14	-0.456 (inactive)
CCAACUCGGCAAAACCGUUTT against NDUFS3	-0.54 (inactive)
CGAUGGGUAUGAGCCUGGATT against ATHL1	0 (inactive)
GCGGAGAUCAGAUUAGUCATT against NCL	1.33 (active)
GAACUUGACCAUUAUAUCATT against PHKA2	0.304 (inactive)
GUCUGUAACUGAGCAAGGATT against YWHAZ	0.721 (inactive)
CUAUAGUGGUUCAUCACAATT against GCNT1	0.463 (inactive)
GGUGCUGGAGUUAAUCUUATT against TP53I3	0.244 (inactive)
CACCUACGAUAGCUACUAUTT against NKTR	-1.1 (active)
GGCUUCUACUGGUGUCUGATT against PIGR	-0.35 (inactive)
GCUCGGUGGAAAAACGUGATT against SCN3A	-0.0556 (inactive)
CGGGUACAAGGAUUGGUUUTT against ROM1	0.41 (inactive)
GAACUUAGACCAACUUUAATT against COX5A	-0.348 (inactive)
GCUCCAAAUGGAGAGUGUATT against PRKCDBP	0.244 (inactive)
CCAUCUUGGUAAUGCCCAUTT against HTR1D	-0.155 (inactive)
GCUUAUCCAUUGGAACUGUTT against NEK9	0.0698 (inactive)
CGUUGCUAGUGCUCACUUATT against FRAG1	-0.554 (inactive)
GGCUACAAUUUAAGACGAUTT against TNR	0.498 (inactive)
GGCCCGAGCUGAUUGACUATT against ACTN1	0 (inactive)
GCACAGGACAGACAGGCUATT against SRC	-0.0246 (inactive)
GGAUAUUAAGGACAGGAAATT against RAN	-3.09 (active)

---

- Run Description: Novel Modifiers of Survival Motor Neuron (SMN) Protein: Gene Identification via Genome-wide siRNA Screen;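 also: luminescence tracks full-length SMN protein made from the SMN2 reporter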
- Assay Setup: HEK293T SMN2-luciferase reporter, siRNA knockdown, 72 h; actives lie on both sides
Screen size: about 31,000 sequences; about 1,400 (4.5%) were called active. The entries come from a sample that favours actives as a whole.
Quick rule for you: median seed-adjusted z-score under -0.005 gets Criterion met, anything else gets Criterion not met.

Item Sequence	Qualitative Label
GUCUUUACUCUUCAACUGATT against THBS4	Criterion met
CGGAGAACAUUGUUGUUCUTT against TMTC2	Criterion not met
GACCGAGAAGUACCGCUGATT against HBZ	Criterion met
CUUUAAGACUCAUAACGAATT against GTF2E2	Criterion met
AGAUGAGGAGUGUCGUCAATT against KLK13	Criterion not met
GCCUCGCUGUGAUCUGAUUTT against CACNG6	Criterion met
CGAAAUACGUGGAACUCAUTT against ACE	Criterion not met
CGAAUGCAUCAGAUCAACATT against UBA2	Criterion not met
AGCUCACACUAUGCAUUGATT against KRTAP2-2	Criterion met
CCAACAGGAGAGUACGUGATT against STRADA	Criterion not met
GGCAAGUUCUCCUUCGACATT against ALDH3B1	Criterion not met
GAAGCUUGAUCUAAUUAUATT against ZNF182	Criterion not met
CGACAAGUCUGACAGGGAUTT against PQBP1	Criterion met
GAUGAUUCAGGUAAAAUAATT against CETN3	Criterion met
GCCUGGUACUACUAGCUUUTT against TRPC5	Criterion met
GGUUAUACUCGGGCAGAGATT against NDUFS5	Criterion met
GCAUGAUGGAUGUUGAUCATT against CCT5	Criterion not met
CCUCCGGAACAAGAACUAATT against ZNF397	Criterion met
GAAACAAAGUCUUAAUAUUTT against ATP1A4	Criterion not met
UGCUGACCCUAAUCCCUUATT against ETV2	Criterion not met
GUGUCCAACAGAUACGGAATT against DSCAM	Criterion met
GAUAUAAAGUCAUGAAGAATT against USP30	Criterion met
AGAGCAUUGGGUACACCAATT against COL6A2	Criterion not met
GAUUUUAUCUCAGUACAUUTT against UCK2	Criterion met
CCAUUAACGAGCUGCUUAATT against PLK1	Criterion met
